Record form. Attribute: Ki. Fill in for each entry.
- TEST TARGET: A II receptor
- TEST SUMMARY: receptor binding test: displacement of 125I-Sar1-Ile8-AT II or [3H] AT II in the rat adrenal cortex
Field: value (include unit after the number)

-- ask Under A II receptor: Ki value of CCCCc1nc(Cl)c(COCc2occc2C(=O)O)n1Cc1ccc(-c2ccccc2-c2nnn[nH]2)cc1 ?
-- reply 3.2 nM

-- ask Provide the documented Ki with A II receptor as the system for CCCCc1nc(Cl)c(COCc2ccccc2C(=O)O)n1Cc1ccc(-c2ccccc2-c2nnn[nH]2)cc1 [ex. 18]
-- reply 4.4 nM
